Entries and their measured Mean % WT Binding follow.
molecular target: human CD33 A290S (human, UniProt P20138 18-364); test: alanine scan, flow cytometry, HEK293-T;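 also: antibody binding to each alanine-substituted CD33 mutant expressed transiently in HEK293-T, read as fluorescence minus background, mean of duplicates, relative to wild-type CD33 set as 100%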
Sequence (P20138 18-364 A290S limits assumed): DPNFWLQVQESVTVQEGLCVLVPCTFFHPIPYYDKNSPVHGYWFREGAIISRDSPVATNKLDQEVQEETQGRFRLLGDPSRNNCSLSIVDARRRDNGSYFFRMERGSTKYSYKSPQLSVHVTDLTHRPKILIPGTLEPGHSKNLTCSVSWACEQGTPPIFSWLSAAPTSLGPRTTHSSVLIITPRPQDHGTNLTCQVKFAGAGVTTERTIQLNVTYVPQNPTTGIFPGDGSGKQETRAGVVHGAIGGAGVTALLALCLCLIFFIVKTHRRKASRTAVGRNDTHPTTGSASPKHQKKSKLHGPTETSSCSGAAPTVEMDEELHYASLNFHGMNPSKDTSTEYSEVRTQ
API: value field is a number in % WT binding; no unit string.

A selection of reference data follows.
* Refmab #3 (antibody, V domains shown, The alanine scan used IgG or Fab) VH: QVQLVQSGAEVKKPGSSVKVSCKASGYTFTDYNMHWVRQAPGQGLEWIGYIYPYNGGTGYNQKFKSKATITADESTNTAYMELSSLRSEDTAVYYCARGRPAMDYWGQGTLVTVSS VL: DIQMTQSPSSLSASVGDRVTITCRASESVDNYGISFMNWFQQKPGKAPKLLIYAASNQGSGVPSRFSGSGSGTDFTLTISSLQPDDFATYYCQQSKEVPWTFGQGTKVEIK | 97.2
* Refmab #1 (antibody, V domains shown, The alanine scan used IgG or Fab; also called hP67.6) VH: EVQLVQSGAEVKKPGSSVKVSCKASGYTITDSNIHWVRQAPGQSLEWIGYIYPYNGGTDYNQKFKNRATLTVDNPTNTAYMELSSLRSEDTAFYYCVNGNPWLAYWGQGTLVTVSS VL: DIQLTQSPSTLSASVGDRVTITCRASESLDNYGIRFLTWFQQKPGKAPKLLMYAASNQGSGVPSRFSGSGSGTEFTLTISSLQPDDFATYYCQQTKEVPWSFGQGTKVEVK | 105
* Refmab #2 (antibody, V domains shown, The alanine scan used IgG or Fab) VH: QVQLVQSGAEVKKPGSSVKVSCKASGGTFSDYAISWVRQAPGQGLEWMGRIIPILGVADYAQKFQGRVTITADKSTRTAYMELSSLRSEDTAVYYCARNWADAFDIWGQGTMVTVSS VL: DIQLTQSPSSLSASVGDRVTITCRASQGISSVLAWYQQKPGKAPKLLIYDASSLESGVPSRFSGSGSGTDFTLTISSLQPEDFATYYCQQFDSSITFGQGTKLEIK | 120

The binder Refmab #4 (antibody, V domains shown, The alanine scan used IgG or Fab) VH: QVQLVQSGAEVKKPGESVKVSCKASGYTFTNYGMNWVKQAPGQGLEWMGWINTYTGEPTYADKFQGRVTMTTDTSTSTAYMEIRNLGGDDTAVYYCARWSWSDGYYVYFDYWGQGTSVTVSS VL: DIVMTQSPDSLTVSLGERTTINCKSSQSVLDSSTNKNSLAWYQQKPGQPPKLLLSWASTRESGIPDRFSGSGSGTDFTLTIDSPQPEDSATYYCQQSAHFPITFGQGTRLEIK showed Mean % WT Binding equal to 107

Values compiled from patent US20260242735A1.
